test: S16 Schwann cell PMP22 intronic element firefly luciferase assay (AID 624032); details: S16 rat Schwann cells, PMP22 element FLuc, 24 h; series mostly up to 57.5 µM; also: nearly all actives have a fitted effect of over 30% in size
Inconclusive results are not listed. Activity calls are given as the source filed them. Calls follow the shape of the dose curve; as a rule, active = well fitted inhibition curve with a large enough effect; inconclusive = small, poorly fitted or top-dose-only effect; inactive = no such curve, though single readings can be large or run the other way.
Outcomes: T = active, F = inactive

# compoundStructure, labelClass
rows = [
    ("C#CCOc1ccc2c(C)cc(=O)oc2c1", "F"),
    ("CC[C@@]1(O)C(=O)OCc2c1cc1n(c2=O)Cc2cc3c([N+](=O)[O-])cccc3nc2-1", "T"),
    ("CCNC(=O)[C@@H]1CCCN1C(=O)[C@H](CCCN=C(N)N)NC(=O)[C@H](CC(C)C)NC(=O)[C@@H](Cc1c[nH]c2ccccc12)NC(=O)[C@H](Cc1ccc(O)cc1)NC(=O)[C@H](CO)NC(=O)[C@H](Cc1c[nH]c2ccccc12)NC(=O)[C@H](Cc1cnc[nH]1)NC(=O)[C@@H]1CCC(=O)N1", "T"),
]
